- assayed_target: Sentrin-specific protease 1 (Homo sapiens)
- Sequence (Q9P0U3 whole entry, the tested form may be a part): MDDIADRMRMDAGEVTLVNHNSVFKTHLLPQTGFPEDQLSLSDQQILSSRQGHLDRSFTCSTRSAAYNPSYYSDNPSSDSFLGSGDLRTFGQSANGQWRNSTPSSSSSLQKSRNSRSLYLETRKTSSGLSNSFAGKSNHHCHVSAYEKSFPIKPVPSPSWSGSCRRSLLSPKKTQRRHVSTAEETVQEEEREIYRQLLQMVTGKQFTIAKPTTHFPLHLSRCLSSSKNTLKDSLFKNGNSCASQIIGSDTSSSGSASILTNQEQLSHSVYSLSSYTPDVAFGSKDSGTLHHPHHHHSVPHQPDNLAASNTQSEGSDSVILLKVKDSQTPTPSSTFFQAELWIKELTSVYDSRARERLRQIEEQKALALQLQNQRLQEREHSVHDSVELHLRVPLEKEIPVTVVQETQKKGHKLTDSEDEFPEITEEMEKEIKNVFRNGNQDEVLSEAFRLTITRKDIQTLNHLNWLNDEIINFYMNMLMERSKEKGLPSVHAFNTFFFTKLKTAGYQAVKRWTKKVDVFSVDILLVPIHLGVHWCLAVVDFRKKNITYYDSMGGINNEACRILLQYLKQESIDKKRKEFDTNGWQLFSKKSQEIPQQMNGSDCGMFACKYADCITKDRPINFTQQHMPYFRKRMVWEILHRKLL
- method_summary: Dose response confirmation of small molecule inhibitors of the catalytic domain of the SUMO protease, SENP1 in a FRET assay.
- Format: functional
- measurement_parameters: read-out: IC50_Mean
Activity calls are given as the source filed them.
metric: IC50

COc1ccc(NC2=Nc3cccc4cccc2c34)cc1 ... 10 µM (active)

Moving on to the next compound.
The compound identified as c1ccc(CN2CCN(C3=Nc4cccc5cccc3c45)CC2)cc1 registered its IC50 at 7.24 µM (active)

----------
- method_summary: HepG2 cell cytotoxicity, dose response, cytotoxicity control, plate reader, cherry-pick, antagonist series (AID 743416)
- Format: functional, cell-based
Activity calls are given as the source filed them.
metric: AC50

O=C(Nc1ccc(-c2nc3ccccc3[nH]2)cc1)C1CCCO1 (stereo not given) ... 24.7 µM (active)
CC(C)OC(=O)c1ccc(NCc2cc(O)ccc2O)cc1Cl ... 23.6 µM (active)
CC(=O)c1ccc(Nc2nc(-c3sc(C)nc3C)cs2)cc1 ... 2.87 µM (active)
CCOc1ccc2nc(NC(=O)c3ccco3)sc2c1 ... 32.6 µM (active)

# context switch: different compound, same AC50
AC50 for O=C(Nc1nc2ccccc2[nH]1)c1ccc(Cl)cc1 is 29.5 µM (active)
